target: human ROR2 (human, UniProt Q01974 34-403, limits assumed); experiment: SPR
Sequence (Q01974 34-403 limits assumed): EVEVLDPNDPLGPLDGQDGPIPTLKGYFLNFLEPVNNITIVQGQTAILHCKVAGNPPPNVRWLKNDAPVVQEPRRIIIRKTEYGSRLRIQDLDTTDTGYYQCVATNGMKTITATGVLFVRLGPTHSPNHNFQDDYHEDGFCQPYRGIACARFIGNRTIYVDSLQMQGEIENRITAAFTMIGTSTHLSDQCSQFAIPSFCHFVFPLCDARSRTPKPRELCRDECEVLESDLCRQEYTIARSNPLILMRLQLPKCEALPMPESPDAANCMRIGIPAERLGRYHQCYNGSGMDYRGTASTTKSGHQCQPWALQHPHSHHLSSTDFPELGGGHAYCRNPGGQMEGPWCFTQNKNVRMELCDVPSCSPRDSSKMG

>  <Binder>
grafted humanized 6E6: VH3-11*03 (IMGT) + VK1-8*01 (IMGT) (antibody, V domains shown, expressed as IgG) VH: QVQLLESGGGLVKPGGSLRLSCAASGFTFSNYGMSWIRQAPGKGLEWVSYISSGGGYTNYADSVKGRFTISRDNAKNSLYLQMNSLRAEDTAVYYCARHPRDFSYAMDYWGQGTTVTVSS VL: AIRMTQSPSSFSASTGDRVTITCRASQDVGHYLAWYQQKPGKAPKLLIYWASTLQSGVPSRFSGSGSGTDFTLTISCLQSEDFATYYCQQYNIYPWTFGQGTKVEIK

>  <binding result>
no binding

$$$$
>  <Binder>
grafted humanized 6E6: VH3-21*01 (IMGT) + VK1-8*01 (IMGT) (antibody, V domains shown, expressed as IgG) VH: EVQLVESGGGLVKPGGSLRLSCAASGFTFSNYGMNWVRQAPGKGLEWVSSISSGGGYTYYADSVKGRFTISRDNAKNSLYLQMNSLRAEDTAVYYCARHPRDFSYAMDYWGQGTTVTVSS VL: AIRMTQSPSSFSASTGDRVTITCRASQDVGHYLAWYQQKPGKAPKLLIYWASTLQSGVPSRFSGSGSGTDFTLTISCLQSEDFATYYCQQYNIYPWTFGQGTKVEIK

>  <binding result>
no binding

$$$$
>  <Binder>
grafted humanized 6E6: VH3-21*01 (IMGT) + VK3-15*01 (IMGT) (antibody, V domains shown, expressed as IgG) VH: EVQLVESGGGLVKPGGSLRLSCAASGFTFSNYGMNWVRQAPGKGLEWVSSISSGGGYTYYADSVKGRFTISRDNAKNSLYLQMNSLRAEDTAVYYCARHPRDFSYAMDYWGQGTTVTVSS VL: EIVMTQSPATLSVSPGERATLSCRASQDVGHYLAWYQQKPGQAPRLLIYWASTRATGIPARFSGSGSGTEFTLTISSLQSEDFAVYYCQQYNIYPWTFGQGTKVEIK

>  <binding result>
no binding

$$$$

Entry source: patent US20260209348A1
